Source of measurements: patent US10174013B2

The following compounds are shown together with reported log10 IC50 values.
- System: HepG2 cells
- METHOD SUMMARY: Growth inhibition, MTS assay, HepG2
- Format: cell-based, Human
- MEASUREMENT CONDITIONS: 72 hours, MTS cell viability; read-out: HepG2 ED50
PARAMETER MEASURED: log10 IC50 (log10 of the value in nM)

> print(dat)
                                    compound  obs.value
 1  CCn1c(N2CCCC(N)C2)nc2c([N+](=O)[O-])c(Br)c(Br)cc21.Cl (centres unmarked) [Example 1F]       3.52
 2  O=[N+]([O-])c1c(Br)c(Br)cc2c1nc(N[C@@H]1CCCNC1)n2CC1CC1 [Example 1CH]       3.34
 3  CC(C)n1c(N2CCNC[C@H]2C)nc2c([N+](=O)[O-])c(Br)c(Br)cc21 [Example 1AX]       2.00
 4  CC(C)n1c(N2CCNC[C@H]2C)nc2c([N+](=O)[O-])c(Br)c(Br)cc21 [Example 1AO]       3.23
 5  CC(C)n1c(N2CC[C@@H](N)C2)nc2c([N+](=O)[O-])c(Br)c(Br)cc21 [Example 1AY]       3.18
 6  CCn1c(N[C@H]2CCCNC2)nc2c([N+](=O)[O-])c(Br)c(Br)cc21 [Example 1AA]       3.32
 7  N[C@@H]1CCN(c2nc3c([N+](=O)[O-])c(Br)c(Br)cc3n2CCCO)C1 [Example 1DF]       3.57
 8  CC(C)n1c(N2CC[C@@H](N)C2)nc2c([N+](=O)[O-])c(Br)c(F)cc21 [Example 1CY]       3.45
 9  COCCn1c(N2CC[C@@H](N)C2)nc2c([N+](=O)[O-])c(Br)c(Br)cc21 [Example 1CS]       3.67
10  CCn1c(N2CCC[C@H](N)C2)nc2c([N+](=O)[O-])c(Br)c(Br)cc21 [Example 1AH]       3.34
11  CC(C)n1c(N[C@@H]2CCNC2)nc2c([N+](=O)[O-])c(Br)c(Br)cc21 [Example 1BF]       3.36
12  CC(C)n1c(NC2CCNCC2)nc2c([N+](=O)[O-])c(Br)c(Br)cc21 [Example 1DK]       3.76
13  CCn1c(NCCN)nc2c([N+](=O)[O-])c(Br)c(Br)cc21 [Example 1AL]       3.15
14  O=[N+]([O-])c1c(Br)c(Br)cc2c1nc(N[C@@H]1CCNC1)n2CC1CC1 [Example 1CJ]       3.72
15  CC(C)Cn1c(N2CCC[C@@H](N)C2)nc2c([N+](=O)[O-])c(Br)c(Br)cc21.Cl [Example 1AU]       3.28
16  CC(C)n1c(N2CCNCC2)nc2c([N+](=O)[O-])c(Br)c(F)cc21 [Example 1CL]       3.18
17  Cl.N[C@H]1CCN(c2nc3c([N+](=O)[O-])c(Br)c(Br)cc3n2CC2CC2)C1 [Example 1CK]       3.72
18  N[C@@H]1CCN(c2nc3c([N+](=O)[O-])c(Br)c(Br)cc3n2CC2CC2)C1 [Example 1BG]       3.60
19  CC(C)n1c(N2CCNCC2CO)nc2c([N+](=O)[O-])c(Br)c(Br)cc21 (centres unmarked) [Example 1DN]       2.95
20  N[C@@H]1CCN(c2nc3c([N+](=O)[O-])c(Br)c(Br)cc3n2C2CCC2)C1 [Example 1DC]       3.00
21  CC(C)n1c(NC2CCNC2)nc2c(C#N)c(Br)c(Br)cc21 (centres unmarked) [Example 1BK]       3.72
22  O=[N+]([O-])c1c(Br)c(Br)cc2c1nc(N[C@H]1CCNC1)n2CC1CC1 [Example 1CI]       3.15
23  CCCn1c(NCCCN)nc2c([N+](=O)[O-])c(Br)c(Br)cc21 [Example 1P]       3.18
